The reported numbers originate from patent US20150306181A1.

# assay system: T1, mouse leptin receptor-Fc chimera (mouse; human, UniProt P48356 22-839)
# T1 construct: extracellular domain; Bought from R&D Systems; Captured on a protein G sensor chip through its Fc; also called ObR-Fc; chimera leptin receptor; not shown: human Fc fragment, printed as 'human protein G Fc fragment'
# T1 sequence (looked up): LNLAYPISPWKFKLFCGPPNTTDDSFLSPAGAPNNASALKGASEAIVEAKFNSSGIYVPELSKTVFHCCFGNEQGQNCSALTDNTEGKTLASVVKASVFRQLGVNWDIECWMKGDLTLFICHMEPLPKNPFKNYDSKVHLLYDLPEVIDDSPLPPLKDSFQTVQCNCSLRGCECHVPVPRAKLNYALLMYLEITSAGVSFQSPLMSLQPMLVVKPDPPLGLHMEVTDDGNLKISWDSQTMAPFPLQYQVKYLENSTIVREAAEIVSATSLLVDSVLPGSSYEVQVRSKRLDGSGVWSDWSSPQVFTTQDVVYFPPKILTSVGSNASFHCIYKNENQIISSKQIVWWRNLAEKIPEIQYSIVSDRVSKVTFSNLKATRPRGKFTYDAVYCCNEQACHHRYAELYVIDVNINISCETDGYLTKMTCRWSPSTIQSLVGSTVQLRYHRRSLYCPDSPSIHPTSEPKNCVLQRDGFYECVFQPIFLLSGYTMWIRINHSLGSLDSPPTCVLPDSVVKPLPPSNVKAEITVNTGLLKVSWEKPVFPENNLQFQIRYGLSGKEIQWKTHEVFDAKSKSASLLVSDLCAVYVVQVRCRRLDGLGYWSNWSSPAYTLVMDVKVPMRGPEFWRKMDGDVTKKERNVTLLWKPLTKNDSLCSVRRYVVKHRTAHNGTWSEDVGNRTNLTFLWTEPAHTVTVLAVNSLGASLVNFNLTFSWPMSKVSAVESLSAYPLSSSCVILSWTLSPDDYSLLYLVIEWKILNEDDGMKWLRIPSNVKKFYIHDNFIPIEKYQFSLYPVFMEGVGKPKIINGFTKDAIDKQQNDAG
# protocol text: SPR (Biacore 3000), ObR-Fc captured on protein G chip, 1:1 model
measurement name: kon (M⁻¹ s⁻¹)

INSERT INTO measurements (binder, unit_spec, quantitative_result) VALUES
  ('Lep-(ss)-P85(2.1) (ligand, mouse, UniProt P41160 22-167, looked up, Pluronic P85 chains on lysine amino groups through the DSP (disulfide) linker; lower degree of modification; positions not determined, Mixture that includes unmodified leptin) VPIQKVQDDTKTLIKTIVTRINDISHTQSVSAKQRVTGLDFIPGLHPILSLSKMDQTLAVYQQVLTSLPSQNVLQIANDLENLRDLLHLLAFSKSCSLPQTSGLQKPESLDGVLEASLYSTEVVALSRLQGSLQDILQQLDVSPEC', 'M⁻¹ s⁻¹', 113000),
  ('Lep-(ss)-P85(1) reduced (ligand, mouse, UniProt P41160 22-167, looked up, Pluronic P85 chains on lysine amino groups through the DSP linker, partly cleaved by 6 mM L-glutathione; a linker remainder is left on cleaved sites, Lep-(ss)-P85(1) dialysed against 6 mM L-glutathione in PBS with 20% ethanol; Some but not all P85 chains were cleaved; also called reduced form of Lep-(ss)-P85(1)) VPIQKVQDDTKTLIKTIVTRINDISHTQSVSAKQRVTGLDFIPGLHPILSLSKMDQTLAVYQQVLTSLPSQNVLQIANDLENLRDLLHLLAFSKSCSLPQTSGLQKPESLDGVLEASLYSTEVVALSRLQGSLQDILQQLDVSPEC', 'M⁻¹ s⁻¹', 49000),
  ('Lep-(nc)-P85(2) (ligand, mouse, UniProt P41160 22-167, looked up, one Pluronic P85 chain on the N-terminal alpha amino group by reductive amination with mono-aldehyde-P85, the rest is unmodified leptin; also called N-terminal modified Lep-(nc)-P85(2)) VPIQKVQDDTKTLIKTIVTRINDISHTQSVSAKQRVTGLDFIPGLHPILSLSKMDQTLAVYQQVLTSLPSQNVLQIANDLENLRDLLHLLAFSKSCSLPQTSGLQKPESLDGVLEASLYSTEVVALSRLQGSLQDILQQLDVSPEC', 'M⁻¹ s⁻¹', 77000),
  ('Lep-(ss)-P85(2.3), 33 min (ligand, mouse, UniProt P41160 22-167, looked up, one Pluronic P85 chain on a lysine amino group through the DSP (disulfide) linker; position not determined, HIC fraction collected at 33 min, said to contain leptin modified with one P85 chain; also called Lep-(ss)-P85(2.3) purified by HIC (33 minutes); HIC-purified Lep-(ss)-P85(2.3)) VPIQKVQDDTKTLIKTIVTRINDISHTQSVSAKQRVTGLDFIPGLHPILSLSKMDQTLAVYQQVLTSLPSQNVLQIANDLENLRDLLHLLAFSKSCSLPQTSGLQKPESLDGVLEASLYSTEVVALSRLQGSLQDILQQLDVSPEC', 'M⁻¹ s⁻¹', 311000);
